Experiment: qHTS RealTime-Glo MT Cell Viability Assay in HEK293 cells - 32 hour (AID 1224868); also: nearly all actives have a fitted effect of over 50% in size
Conditions: RealTime-Glo luminescence; series mostly up to 76.8 µM
Inconclusive results are not listed. Activity calls are given as the source filed them. Calls follow the shape of the dose curve; as a rule, active = well fitted cell-killing curve with a large enough effect in the repeat runs; inconclusive = weak or mixed curves, or effect the other way; inactive = flat fitted curve, though single readings scatter.
Outcomes: active, inactive

{"columns": ["molecule", "label"],
 "data": [
  ["CCN(CC)CCOc1ccc(C(O)(Cc2ccc(Cl)cc2)c2ccc(C)cc2)cc1 (stereo not drawn)", "active"],
  ["CC1=C(/C=C/C(C)=C/C=C/C(C)=C\\C=O)C(C)(C)CCC1", "active"],
  ["Brc1ccccn1", "inactive"],
  ["Cn1cnc2ncnc(N)c21", "inactive"],
  ["O=C(O)CCn1c2c(c3ccccc31)C[C@H](NS(=O)(=O)c1ccc(F)cc1)CC2", "inactive"],
  ["CCc1cccc(CC)c1NC(=O)C(=O)O", "inactive"],
  ["Cc1cc2c(C(C)C)c(O)c(O)c(C=O)c2c(O)c1-c1c(C)cc2c(C(C)C)c(O)c(O)c(C=O)c2c1O", "active"],
  ["CC(=O)O[C@@H]1C[C@@H]2CC[C@@]1(C)C2(C)C", "inactive"]
]}

====

Assay: A CellTox Green Cytotoxicity Assay to monitor cytotoxicity in HepG2 cells - 8 hour (AID 1224890); also: nearly all actives have a fitted effect of over 45% in size
Details: CellTox Green fluorescence; series mostly up to 76.8 µM
Inconclusive results are not listed. Activity calls are given as the source filed them. The call rests on the fitted dose curve; in most records, active means well fitted activation curve with a large enough effect in the repeat runs; inconclusive means weak or mixed curves; inactive means flat fitted curve, though single readings scatter.
Outcomes: active, inactive

{"columns": ["compound", "label"],
 "data": [
  ["O=C(Oc1ccccc1)c1cccc(C(=O)Oc2ccccc2)c1", "inactive"],
  ["CCC(C)c1cc([N+](=O)[O-])cc([N+](=O)[O-])c1OC(=O)OC(C)C (stereo unspecified)", "inactive"],
  ["O=C1OC(=O)c2ccc3c4c(ccc1c24)C(=O)OC3=O", "inactive"],
  ["CCCCCCCC/C=C\\CCCCCCCC(=O)N(C)CC(=O)O", "inactive"],
  ["Cn1cnc2ncnc(N)c21", "inactive"],
  ["C/C=C/CO", "inactive"],
  ["CCCCCCCC(OC)OC", "inactive"],
  ["COc1nccnc1CC(C)C", "inactive"],
  ["O=C(Nc1ccc(Cl)cc1)Nc1ccc(Cl)c(C(F)(F)F)c1", "inactive"],
  ["COC(=O)C1=C(C)NC(C)=C(C(=O)OCCCN2CCC(c3ccccc3)(c3ccccc3)CC2)C1c1cccc([N+](=O)[O-])c1 (stereo unspecified)", "inactive"],
  ["CCOCN(C(=O)CS(=O)(=O)O)c1c(C)cccc1CC", "inactive"],
  ["CO[Si](CCCNCCNCCN)(OC)OC", "inactive"],
  ["COc1cccc(OC)c1O", "inactive"],
  ["CO[C@H]1C=CO[C@@]2(C)Oc3c(C)c(O)c4c(O)c(cc(O)c4c3C2=O)NC(=O)/C(C)=C\\C=C/[C@H](C)[C@H](O)[C@@H](C)[C@@H](O)[C@@H](C)[C@H](OC(C)=O)[C@@H]1C", "inactive"],
  ["CCOB(OCC)OCC", "inactive"],
  ["CCN(CC)CCSC(=O)C(c1ccccc1)c1ccccc1", "inactive"],
  ["CC(C)(C)c1cc(/C=C2\\SC(=N)NC2=O)cc(C(C)(C)C)c1O", "active"],
  ["Clc1cc(Cl)c(-c2c(Cl)c(Cl)cc(Cl)c2Cl)cc1Cl", "inactive"],
  ["COc1ccc(-n2nc(CCC(=O)N(C)O)cc2-c2ccc(Cl)cc2)cc1", "inactive"],
  ["CN(C)CCCN1c2ccccc2CCc2ccccc21", "inactive"],
  ["CCOC(=O)N1CCC(=C2c3ccc(Cl)cc3CCc3cccnc32)CC1", "inactive"],
  ["Cc1ccc(CCn2c3c(c4cc(Cl)ccc42)CN(C)CC3)cn1", "inactive"],
  ["OCCCc1cccnc1", "inactive"],
  ["CCCCN(CCCC)CCC(O)c1cc2c(Cl)cc(Cl)cc2c2cc(C(F)(F)F)ccc12 (stereo unspecified)", "inactive"],
  ["C[C@@H]1CC[C@H]2C(C)(C)[C@H]3C[C@@]12CC[C@@]3(C)O", "inactive"],
  ["OCCC(O)CO (stereo unspecified)", "inactive"],
  ["NC(=O)C(=O)N/N=C/c1ccc([N+](=O)[O-])o1", "inactive"],
  ["c1cc[nH]c1", "inactive"],
  ["CS(C)(=O)=O", "inactive"],
  ["CCCCCCCCCCCCCc1ccccc1", "inactive"],
  ["CCC(C)c1ccccc1 (stereo unspecified)", "inactive"],
  ["Cc1oc(-c2ccccc2)nc1CCOc1ccc(C[C@H](Nc2ccccc2C(=O)c2ccccc2)C(=O)O)cc1", "inactive"],
  ["CCOC(/C=C(\\C)CCC=C(C)C)OCC", "inactive"],
  ["CCCCCCCC/C=C/CCCOC(C)=O", "inactive"],
  ["CCc1ccc(O)c(C(C)(C)C)c1", "active"],
  ["CCC(=O)OCCc1ccccc1", "inactive"],
  ["CC(COC(=O)c1ccccc1)OC(=O)c1ccccc1 (stereo unspecified)", "inactive"],
  ["CCCCCCS", "inactive"],
  ["CCCCCCOc1cc(C)c(O)c(C)c1C", "active"],
  ["c1ccc2c(c1)CCC2", "inactive"],
  ["CC(CN(C)C)CN1c2ccccc2CCc2ccccc21 (stereo unspecified)", "inactive"]
]}

These data points were gathered from PubChem BioAssay (Tox21).
